Experiment: Particle size and PDI of lipid nanoparticles by dynamic light scattering
Assay type: physicochemical
Details: lipid nanoparticles with luciferase mRNA; ionizable lipid/cholesterol/DSPC/DMG-PEG2000 50/38.5/10/1.5 mol%
Classes by Particle size (nm): LOW (below 90 nm), MID (90 nm to below 100 nm), HIGH (100 nm or more)

- compound: "CCCCCCCCCCC(=O)OCCC(C)(C)CCCCN(CCO)CCCCCCCC(=O)OCC(CCCCCCCC)CCCCCCCC [99b]"
  class-label: "LOW"
- compound: "CCCCCCCCCC(=O)OCCC(C)(C)CCCCCN(CCCCO)CCCCCCC(=O)OCCC(CCCCCCCC)CCCCCCCC [109b]"
  class-label: "MID"
- compound: "CCCCCCCCCC(=O)OCCCC(C)(C)CCCN(CCCCO)CCCCCCC(=O)OCCCC(CCCCCC)CCCCCC [94b]"
  class-label: "HIGH"
- compound: "CCCCCCCCCOC(=O)C(C)(C)CCCCCCN(CCO)CCCCCCOC(=O)OCC(CCCCCCC)CCCCCCC [40a]"
  class-label: "HIGH"
- compound: "CCCCCCCCCCC(=O)OCCCC(C)(C)CCCN(CCO)CCCCCCCC(=O)OCCC(CCCCCCC)CCCCCCC [80b]"
  class-label: "MID"
- compound: "CCCCCCCCCCCCOC(=O)CCCCCN(CCO)CCCCCCC(C)(C)C(=O)OC(CCCCCCCCC)CCCCCCCCC [24a]"
  class-label: "HIGH"
- compound: "CCCCCCCCCC(=O)OCCCC(C)(C)CCCN(CCO)CCCCCCC(=O)OCCC(CCCCCCC)CCCCCCC [74b]"
  class-label: "MID"
- compound: "CCCCCCCCCOC(=O)OCCCCCCN(CCO)CCCCCCC(C)(C)C(=O)OCCC(CCCCCC)CCCCCC [34a]"
  class-label: "HIGH"
- compound: "CCCCCCCCCCC(=O)OCC1(CCCCCN(CCO)CCCCCCCC(=O)OC(CCCCCCCCC)CCCCCCCCC)CC1 [21b]"
  class-label: "MID"
- compound: "CCCCCCCCCCOC(=O)CCCCCCCN(CCO)CCCCCC(C)(C)COC(=O)CC(CCCCCCC)CCCCCCC [19b]"
  class-label: "HIGH"
- compound: "CCCCCCCCCNC(=O)CCCCCCCN(CCO)CCCCCCC(C)(C)C(=O)OC(CCCCCCCC)CCCCCCCC [58a]"
  class-label: "HIGH"
- compound: "CCCCCCCCCOC(=O)OCCCCCCN(CCO)CCCCCCC(C)(C)C(=O)OC(CCCCCCCC)CCCCCCCC [30a]"
  class-label: "HIGH"
- compound: "CCCCCCCCCC(=O)OCCCC(C)(C)CCCN(CCCCO)CCCCCCC(=O)OCC(CCCCCCCC)CCCCCCCC [84b]"
  class-label: "HIGH"
- compound: "CCCCCCCCCC(=O)OCC1(CCCCCN(CCO)CCCCCCOC(=O)OCC(CCCCCCCC)CCCCCCCC)CC1 [34b]"
  class-label: "LOW"
- compound: "CCCCCCCCCCC(=O)OCC(C)(C)CCCCCN(CCCCO)CCCCCCCC(=O)OCCCC(CCCCCC)CCCCCC [63b]"
  class-label: "HIGH"
- compound: "CCCCCCCCCCCOC(=O)CCCCC(C)(C)CCN(CCCCO)CCCCCCCC(=O)OC(CCCCCCCCCC)CCCCCCCCCC [68a]"
  class-label: "HIGH"
- compound: "CCCCCCCCCCOC(=O)OCCCCCCN(CCCCO)CCCCCC(C)(C)COC(=O)CC(CCCCCCC)CCCCCCC [30b]"
  class-label: "HIGH"
- compound: "CCCCCCCCCC(=O)OCCCC(C)(C)CCCN(CCCCO)CCCCCCCC(=O)OCC(CCCCCCC)CCCCCCC [64b]"
  class-label: "HIGH"
- compound: "CCCCCCCCCCCOC(=O)OCCCCN(CCO)CCCCCCC(C)(C)C(=O)OC(CCCCCCCC)CCCCCCCC [36a]"
  class-label: "HIGH"
- compound: "CCCCCCCCCC(=O)OCC(C)(C)CCCCCN(CCO)CCCCCCOC(=O)OCC(CCCCCCCC)CCCCCCCC [33b]"
  class-label: "LOW"

* * *

Assay: Particle size and PDI of lipid nanoparticles by dynamic light scattering
Assay type: physicochemical
Settings: lipid nanoparticles with luciferase mRNA; ionizable lipid/cholesterol/DSPC/DMG-PEG2000 50/38.5/10/1.5 mol%
Here, each record is paired with measured Particle size (nm) data.
measured-endpoint: Particle size (nm)

- compound: "CCCCCCCCCC(=O)OCCCC(C)(C)CCCN(CCO)CCCCCCCC(=O)OCC(CCCCCCC)CCCCCCC [57b]"
  measured-endpoint: "Particle size (nm)"
  result: "98.23 nm"
- compound: "CCCCCCCCCC(=O)OCCC(C)(C)CCCCN(CCO)CCCCCCC(=O)OCCC(CCCCCCC)CCCCCCC [102b]"
  measured-endpoint: "Particle size (nm)"
  result: "92.12 nm"
- compound: "CCCCCCCCC(=O)OCC(C)(C)CCCCCCN(CCO)CCCCCCC(=O)OCC(CCCCCCCC)CCCCCCCC [110b]"
  measured-endpoint: "Particle size (nm)"
  result: "133.93 nm"
- compound: "CCCCCCCCCC(=O)OCC1(CCCCCN(CCO)CCCCCCCC(=O)OC(CCCCCCCCC)CCCCCCCCC)CC1 [53b]"
  measured-endpoint: "Particle size (nm)"
  result: "125.03 nm"

* * *

Assay: Particle size and PDI of lipid nanoparticles by dynamic light scattering
Assay type: physicochemical
Conditions: lipid nanoparticles with luciferase mRNA; ionizable lipid/cholesterol/DSPC/DMG-PEG2000 50/38.5/10/1.5 mol%

- compound: "CCCCCCCCCC(=O)OCC1(CCCCCN(CCO)CCCCCCCC(=O)OCCC(CCCCCC)CCCCCC)CC1 [23b]"
  Particle size (nm): "115.70 nm"
- compound: "CCCCCCCCCCC(=O)OCCC(C)(C)CCCCN(CCCCO)CCCCCCCC(=O)OC(CCCCCCCCC)CCCCCCCCC [55b]"
  Particle size (nm): "90.37 nm"
- compound: "CCCCCCCCCCC(=O)OCC(C)(C)CCCCCN(CCCCO)CCCCCCCCC(=O)OCC(CCCCCCC)CCCCCCC [89b]"
  Particle size (nm): "122.20 nm"
- compound: "CCCCCCCCCC(=O)OCCC(C)(C)CCCCCN(CCO)CCCCCCC(=O)OCC(CCCCCCCCC)CCCCCCCCC [106b]"
  Particle size (nm): "88.22 nm"
- compound: "CCCCCCCCCOC(=O)CCCCC(C)(C)CCN(CCO)CCCCCCOC(=O)OCC(CCCCCCC)CCCCCCC [47a]"
  Particle size (nm): "104.47 nm"
- compound: "CCCCCCCCCCCC(=O)OCC(C)(C)CCCCCN(CCCCO)CCCCCCCCC(=O)OCC(CCCCCCCC)CCCCCCCC [90b]"
  Particle size (nm): "109.57 nm"
- compound: "CCCCCCCCCCC(=O)OCC(C)(C)CCCCCN(CCCCO)CCCCCCCC(=O)OC(CCCCCCCCC)CCCCCCCCC [17b]"
  Particle size (nm): "109.87 nm"
- compound: "CCCCCCCCCCCOC(=O)CCCCCN(CCCO)CCCCCCC(C)(C)C(=O)OC(CCCCCCCC)CCCCCCCC [11a]"
  Particle size (nm): "98.01 nm"
- compound: "CCCCCCCCCOC(=O)CCCCCCCN(CCO)CCCC(C)(C)CCC(=O)OC(CCCCCCCC)CCCCCCCC [10a]"
  Particle size (nm): "131.09 nm"
- compound: "CCCCCCCCCCCOC(=O)OCCCCCN(CCO)CCCCCC(C)(C)COC(=O)CC(CCCCCCC)CCCCCCC [28b]"
  Particle size (nm): "94.55 nm"
- compound: "CCCCCC/C=C\\COC(=O)CCCCCCCN(CCO)CCCCCCC(C)(C)C(=O)OC(CCCCCCCC)CCCCCCCC [57a]"
  Particle size (nm): "79.17 nm"
- compound: "CCCCCCCCCOC(=O)C(C)(C)CCCCCCN(CCO)CCCCCCOC(=O)OCCCC(CCCCC)CCCCC [42a]"
  Particle size (nm): "104.13 nm"
- compound: "CCCCCCCCCC(=O)OCC1(CCCCCN(CCO)CCCCCCCC(=O)OCC(CCCCCCC)CCCCCCC)CC1 [22b]"
  Particle size (nm): "99.44 nm"
- compound: "CCCCCCCCCC(=O)OCCCC(C)(C)CCCN(CCCO)CCCCCCCCC(=O)OCC(CCCCCC)CCCCCC [112b]"
  Particle size (nm): "175.67 nm"
- compound: "CCCCCCCCCCCOC(=O)OCCCCN(CCO)CCCCCCC(C)(C)C(=O)OCCC(CCCCCC)CCCCCC [38a]"
  Particle size (nm): "114.03 nm"
- compound: "CCCCCCCCCOC(=O)CCCCC(C)(C)CCN(CCCCCCCC(=O)OCC(CCCCCCC)CCCCCCC)C(=O)SCCCN(C)C [61a]"
  Particle size (nm): "111.90 nm"
